Target: DYRK1A (Homo sapiens)
Construct: purchased Carna Biosciences, Inc. 04-130
Test: Inhibition test on activity of DYRK family, mobility shift assay (MSA), DYRK1A
Format: biochemical
Details: ATP 100 μM, FITC-labeled DYRKtide peptide substrate, room temperature 1 hour
Readout: Inhibitory Activity 1a (IC50 against DYRK1A)

Please review the following examples before continuing.
- Compound: "CC#C[C@H]1[C@H](CO)NC(=O)N1c1nc2c3c(ccc2s1)OCC3 (relative stereo)"
  Reported Value: "* * *"
- Compound: "CC#CC1CNC(=O)N1c1nc2c3c(ccc2s1)OCCN3C1CC1 (racemic)"
  Reported Value: "* *"
- Compound: "C[Si](C)(C)C#CC1CNC(=O)N1c1nc2c3c(ccc2s1)OCC3 (racemic)"
  Reported Value: "* *"
- Compound: "CC#CC1CNC(=O)N1c1nc2c3c(ccc2s1)OCC3 (single isomer, unassigned) [Example 9]"
  Reported Value: "* * *"

Problem: # Inhibitory Activity 1a (IC50 against DYRK1A) lookup, item CC#CC1CNC(=O)N1c1nc2c3c(ccc2s1)OCC(C)N3C (single isomer, unassigned) [Example 49]
Result: * * *

Problem: Dear colleague, I am looking for the recorded Inhibitory Activity 1a (IC50 against DYRK1A) of the following compound: CC#CC1CNC(=O)N1c1nc2c(ccc3ncccc32)s1 (single isomer, unassigned) [Example 36]
Result: * *

Problem: What measured Inhibitory Activity 1a (IC50 against DYRK1A) goes with CC#CC1CNC(=O)N1c1nc2c3c(ccc2s1)OCC3 (racemic) [Example 8] ?
Result: * * *

Problem: Which Inhibitory Activity 1a (IC50 against DYRK1A) is reported for this compound? CC#CC1CNC(=O)N1c1nc2c(ccc3ncccc32)s1 (single isomer, unassigned) [Example 34]
Result: * * *

###

Items are presented alongside their recorded pIC50.
Molecular target: DYRK2 (Homo sapiens, UniProt Q92630)
Construct: purchased Carna Biosciences, Inc. 04-132
Sequence (Q92630 whole entry): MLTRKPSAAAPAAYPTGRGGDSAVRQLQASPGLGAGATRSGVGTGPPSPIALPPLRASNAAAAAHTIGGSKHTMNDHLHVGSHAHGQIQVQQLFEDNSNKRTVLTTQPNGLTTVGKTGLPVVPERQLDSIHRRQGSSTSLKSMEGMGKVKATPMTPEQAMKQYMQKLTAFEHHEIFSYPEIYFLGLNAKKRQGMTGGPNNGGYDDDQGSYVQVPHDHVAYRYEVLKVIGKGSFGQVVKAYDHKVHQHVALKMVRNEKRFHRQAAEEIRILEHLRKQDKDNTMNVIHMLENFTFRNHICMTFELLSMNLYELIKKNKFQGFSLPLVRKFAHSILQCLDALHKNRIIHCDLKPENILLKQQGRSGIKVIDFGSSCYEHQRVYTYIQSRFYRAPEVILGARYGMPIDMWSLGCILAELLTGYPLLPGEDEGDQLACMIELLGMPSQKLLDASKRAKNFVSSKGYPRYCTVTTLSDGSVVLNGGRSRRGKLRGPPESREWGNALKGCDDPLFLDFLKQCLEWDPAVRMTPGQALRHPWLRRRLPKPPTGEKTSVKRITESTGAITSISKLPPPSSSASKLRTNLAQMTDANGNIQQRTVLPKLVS
Assay: Inhibition test on activity of DYRK family, mobility shift assay (MSA), DYRK2
Assay type: biochemical
Details: ATP 40 μM, FITC-labeled DYRKtide peptide substrate, room temperature 1 hour; read-out: Inhibitory Activity 2 (IC50 against DYRK2)
pIC50: −log10 of the molar value.

As a guide, the following entries are already answered.
- Compound: "O=C1NCC(C#Cc2ccccc2)N1c1nc2c3c(ccc2s1)OCC3 (racemic) [Example 15]"
  pIC50: "≤ 6.00"
- Compound: "CC#CC1CNC(=O)N1c1nc2c(ccc3ocnc32)s1 (racemic) [Example 7]"
  pIC50: "≤ 6.00"
- Compound: "CC#CC1CNC(=O)N1c1nc2c3c(ccc2s1)OCC(C)N3C (single isomer, unassigned) [Example 49]"
  pIC50: "≤ 6.00"
- Compound: "CC#C[C@H]1[C@H](COC)NC(=O)N1c1nc2c3c(ccc2s1)OCC3 (single isomer, unassigned) [Example 76]"
  pIC50: "≤ 6.00"
- Compound: "CC#C[C@@H]1[C@H](COC)NC(=O)N1c1nc2c3c(ccc2s1)OCC3 (single isomer, unassigned) [Example 74]"
  pIC50: "6.00 to 7.00"
- Compound: "CC#CC1CNC(=O)N1c1nc2c3c(ccc2s1)OCC(C)N3C (single isomer, unassigned) [Example 48]"
  pIC50: "≤ 6.00"
- Compound: "CC#CC1CNC(=O)N1c1nc2c(ccc3ncn(C)c32)s1 (racemic) [Example 26]"
  pIC50: "6.00 to 7.00"
- Compound: "CC#CC1CNC(=O)N1c1nc2c(ccc3ocnc32)s1 (single isomer, unassigned) [Example 53]"
  pIC50: "≤ 6.00"

Problem: Name the recorded pIC50 for CC#CC1CNC(=O)N1c1nc2c3c(ccc2s1)OCCO3 (single isomer, unassigned) [Example 58] .
Result: 6.00 to 7.00

Problem: Return reported pIC50; argument: O=C1NCC(C#CC2CC2)N1c1nc2c3c(ccc2s1)OCC3 (racemic) [Example 21]
Result: ≤ 6.00
